Target: Prothrombin (Homo sapiens)
measurement name: IC50 (nM)
Field: numeric (nM). Do not append units.

Before answering, review these 4 worked examples.
N=C(N)c1ccc(CNC(=O)[C@@H]2C[C@@H]3CCCC[C@@H]3N2C(=O)[C@H](NC(=O)[C@H](O)Cc2ccccc2)C(C2CCCCC2)C2CCCCC2)cc1 : 3.4
COc1cc(C)ccc1S(=O)(=O)NN1CCC(C)=C(CC(=O)NCc2ccc(C(=N)N)cc2)C1=O : 44
CC1=C(CC(=O)NCc2ccc(C(=N)N)cc2)C(=O)N(NS(=O)(=O)c2cccc3ccccc23)CC1 : 915
CC1=C(CC(=O)NCc2ccc(C(=N)N)cc2)C(=O)N(NS(=O)(=O)c2ccc(Cl)cc2F)CC1 : 106

Could you now look at the following molecule, please?
**Q:** Suppose we examine the molecule CC1=C(CC(=O)NCc2ccc(C(=N)N)cc2)C(=O)N(NS(=O)(=O)c2c(C)cccc2Cl)CC1 ; what IC50 value has been reported?
**A:** 3

* * *

# pKa listing for each entry below
Experiment: Dissociation constant, pKa of the compound
Assay type: physicochemical
Reply with the value as a number alone.

# annotated cases, reported pKa shown
COc1cc(C)ccc1S(=O)(=O)Nn1ccc(C)c(CC(=O)NCc2ccc(C(=N)N)cc2)c1=O : 6.7
COc1cccc(S(=O)(=O)NN2CCC(C)=C(CC(=O)NCc3ccc(C(=N)N)cc3)C2=O)c1 : 8.8
Cc1ccn(NS(=O)(=O)c2ccccc2)c(=O)c1CC(=O)NCc1ccc(C(=N)N)cc1 : 5.9

**Q:** Form field: reported pKa of CC1=C(CC(=O)NCc2ccc(C(=N)N)cc2)C(=O)N(NS(=O)(=O)c2cc(C)ccc2C)CC1
**A:** 8.7
